Each item that follows carries a reported self-cleavage.
B1: CPEB3 Ribozyme (parent)
chain: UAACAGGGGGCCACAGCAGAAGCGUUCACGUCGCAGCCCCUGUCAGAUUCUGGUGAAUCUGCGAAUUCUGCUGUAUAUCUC

Variants of: B1
Test: self-cleavage, relative activity (ratio to wild type); higher = more cleavage; in vitro, sequencing
Answer using only a numeral; do not append any unit.

Some variants with recorded self-cleavage:
residue-codes: UAACAGGGGGCCCCAGCAGAAGCGUUCACGUCGCAGCCCCUGUCAGCUUCUGGUGAAUCUGCGAAUUCUGCUGUAUAUCUC [A13C A47C]
self-cleavage: 0.34

residue-codes: UAACAGGGGGCCACAGCAGAAGCGUUCACGUCGCAGCCCCUGUCAGAUUCUGGUGGAUCUGCGAAUUCUGCCGUAUAUCUC [A56G U72C]
self-cleavage: 0.93

residue-codes: UAACAGGGGGCCACAGCAGAAGCGUUCACGCCGCAGCCCCUGUCAGAUUCUGGUGAACCUGCGAAUUCUGCUGUAUAUCUC [U31C U58C]
self-cleavage: 0.33

Now, please, on to the next variant.
Query UAACAGGGGGCCACAGCUGAAGCGUUCACGUCGCAGCCCCUGUUAGAUUCUGGUGAAUCUGCGAAUUCUGCUGUAUAUCUC [A18U C44U] yields self-cleavage of 0.2

These measurements were taken from the RNAGym collection of RNA variant scans (doi:10.1093/nar/gkz1192).
